Test system: 3α-hydroxysteroid dehydrogenase
assay: Rotation numbers of thio-NAD cycling reactions with 3α-hydroxyandrostanes
Assay type: biochemical
condition-context: thio-NAD cycling, compound as substrate
I'd appreciate it if you could supply Rotation number of cycling reaction values for the items below.
One number for each entry, in Cycle/min.

Hello, I would appreciate it if you could give Rotation number of cycling reaction for each entry below.
1. CO[C@H]1CC[C@H]2[C@@H]3CC[C@@H]4C[C@H](O)CC[C@]4(C)[C@H]3CC[C@]12C
2. C=C1CC[C@H]2[C@@H]3CC[C@H]4C[C@H](O)CC[C@]4(C)[C@H]3CC[C@]12C [5α-17-CH2, 3α-Hydroxy-17-methylene-5α-Androstane]
3. C[C@H]1CC[C@H]2[C@@H]3CC[C@H]4C[C@H](O)CC[C@]4(C)[C@H]3CC[C@]12C [5α-17-CH3, 3α-Hydroxy-17β-methyl-5α-Androstane]

Result:
1: 458; 2: 308; 3: 200

* * *

Tested on: 3α-hydroxysteroid dehydrogenase
assay: Rotation numbers of thio-NAD cycling reactions with 3α-hydroxyandrostanes
Assay type: biochemical
condition-context: relative to 5α-Androsterone = 100
I'd appreciate it if you could supply Rotation number, Relative value (%) values for the items below.
Answers are plain numbers, in %.

# count of solved cases: 2
[[record]]
compound = "C[C@H](CCC(=O)NCC(=O)O)[C@H]1CC[C@H]2[C@@H]3[C@H](O)C[C@@H]4C[C@H](O)CC[C@]4(C)[C@H]3CC[C@]12C [Glycochenodeoxycholate, Sodium glycochenodoxycholate, reference compound]"
system_under_test = "3α-hydroxysteroid dehydrogenase"
reported = 21

[[record]]
compound = "C[C@@]12CCC[C@H]1[C@@H]1CC[C@H]3C[C@H](O)CC[C@]3(C)[C@H]1CC2 [5α-17-deoxo, 3α-Hydroxy-5α-Androstane]"
system_under_test = "3α-hydroxysteroid dehydrogenase"
reported = 39


Task: Find the measured Rotation number, Relative value (%) of `CO[C@H]1CC[C@H]2[C@@H]3CC[C@@H]4C[C@H](O)CC[C@]4(C)[C@H]3CC[C@]12C` and report it.
Result: 74
